Target: OTUD6B (UniProt Q8N6M0)
Sequence (Q8N6M0 whole entry, the tested form may be a part): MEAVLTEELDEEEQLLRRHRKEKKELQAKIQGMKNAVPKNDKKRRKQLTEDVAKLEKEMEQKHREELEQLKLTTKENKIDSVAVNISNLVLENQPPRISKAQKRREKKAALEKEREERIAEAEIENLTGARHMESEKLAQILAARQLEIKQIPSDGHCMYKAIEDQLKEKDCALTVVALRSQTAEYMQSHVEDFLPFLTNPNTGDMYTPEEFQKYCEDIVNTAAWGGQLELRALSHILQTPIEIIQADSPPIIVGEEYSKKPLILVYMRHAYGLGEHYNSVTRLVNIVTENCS
Assay: log2 ratio of Biotin-Ahx-Ub-VS probe labelling (fragment/DMSO); higher = less target engagement (more negative = stronger competition), active = hit call of the paper (q ≤ 0.05, log2 ratio ≤ -1)
Settings: compound concentration: 200 uM; treatment time: 3 h
Listed below: log2 ratio of Biotin-Ahx-Ub-VS probe labelling values for each entry.
ASSAY ENDPOINT: log2 ratio of Biotin-Ahx-Ub-VS probe labelling

Cl.Cn1ncc2c1CCCC2NC(=O)CCl (centres undefined) = -0.272
O=C(CCl)Nc1nnc(CC(F)(F)F)o1 = -0.105
Cl.O=C(CN1CCN(C(=O)CCl)CC1)Nc1ccc(F)cc1 = 0.226
O=C(CCl)N1CCOC2(CCC2)CC1 = -0.0124
Cc1n[nH]c(=O)c2c(NC(=O)CCl)oc(C)c12 = 0.111
Cl.O=C(CCl)N1CCCC(c2ncc[nH]2)C1 (centres undefined) = -0.0792
NS(=O)(=O)c1ccc(Cl)c(NC(=O)CCl)c1 = -0.573
Cc1cccc(C)c1NC(=O)CCl = -0.307
O=C(CCl)NCCC1COCCO1 (centres undefined) = -0.0161
N#Cc1ccc(CNC(=O)CCl)cc1 = 0.025
Cl.O=C(CCl)N[C@H]1C[C@@H](n2cccn2)C1 = -0.0562
O=C(CCl)N1CCOCCC1c1ccccc1 (centres undefined) = -0.163
Cc1cc(NC(=O)CCl)n(-c2ccccc2)n1 = -0.0228
Cc1n[nH]c2c1CN(C(=O)CCl)CC2 = -0.715

----------
Listed below: log2 ratio of Biotin-Ahx-Ub-VS probe labelling values for each entry.
Target: USP5 (UniProt P45974)
Sequence (whole entry): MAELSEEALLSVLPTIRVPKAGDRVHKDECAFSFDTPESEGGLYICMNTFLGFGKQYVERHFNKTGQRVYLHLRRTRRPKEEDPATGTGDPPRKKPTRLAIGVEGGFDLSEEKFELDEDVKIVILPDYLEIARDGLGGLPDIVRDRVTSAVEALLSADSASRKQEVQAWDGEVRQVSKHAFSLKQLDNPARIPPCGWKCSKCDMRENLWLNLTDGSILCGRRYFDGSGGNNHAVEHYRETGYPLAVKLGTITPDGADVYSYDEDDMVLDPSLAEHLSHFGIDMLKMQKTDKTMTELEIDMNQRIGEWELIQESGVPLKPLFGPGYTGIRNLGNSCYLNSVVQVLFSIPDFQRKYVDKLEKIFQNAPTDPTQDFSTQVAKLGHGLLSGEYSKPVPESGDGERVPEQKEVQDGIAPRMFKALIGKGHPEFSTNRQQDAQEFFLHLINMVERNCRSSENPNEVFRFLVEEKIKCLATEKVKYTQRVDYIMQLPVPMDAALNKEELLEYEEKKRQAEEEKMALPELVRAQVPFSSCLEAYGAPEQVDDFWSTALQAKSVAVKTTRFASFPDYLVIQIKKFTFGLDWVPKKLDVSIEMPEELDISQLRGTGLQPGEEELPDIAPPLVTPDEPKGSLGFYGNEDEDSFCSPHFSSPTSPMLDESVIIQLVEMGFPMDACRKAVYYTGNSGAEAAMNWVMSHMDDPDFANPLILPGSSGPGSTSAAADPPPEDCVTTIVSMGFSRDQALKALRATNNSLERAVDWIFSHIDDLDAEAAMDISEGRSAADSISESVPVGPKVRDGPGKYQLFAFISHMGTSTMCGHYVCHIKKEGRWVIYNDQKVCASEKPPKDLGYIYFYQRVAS
Assay: log2 ratio of Biotin-Ahx-Ub-VS probe labelling (fragment/DMSO); higher = less target engagement (more negative = stronger competition), active = hit call of the paper (q ≤ 0.05, log2 ratio ≤ -1)
Details: compound concentration: 200 uM; treatment time: 3 h
ASSAY ENDPOINT: log2 ratio of Biotin-Ahx-Ub-VS probe labelling

N#Cc1ccccc1N1CCN(C(=O)CCl)CC1 = -0.123
O=C(CCl)N(C1=CCCCC1)C1CC1 = 0.124
O=C(CCl)Nc1nnc(CC(F)(F)F)o1 = 0.0095
Cl.O=C(CCl)N1CCCC(c2ncc[nH]2)C1 (centres undefined) = 0.191
Cc1ccc(CC(NC(=O)CCl)c2ccccn2)cc1.Cl (centres undefined) = -0.125
O=C(CCl)Nc1cc(Cl)ccc1-n1cncn1 = -0.61
COc1ccc(CN(C)C(=O)CCl)cc1 = 0.404
Cl.Cn1cnc2cc(CNC(=O)CCl)ccc21 = -0.445
Cc1ccc(CNC(=O)CCl)nc1C.Cl = -0.461
Cc1cccc(N2CCC(NC(=O)CCl)C2=O)c1 (centres undefined) = -0.179
C/C(=C\CNC(=O)CCl)c1cnn(C)c1.Cl = -0.543
Cc1cccn2cc(CCNC(=O)CCl)nc12.Cl = -0.331
Cc1ccc(CN(CCO)C(=O)CCl)cc1 = -0.134
Cc1cc(C2CCCN2C(=O)CCl)nn1C.Cl (centres undefined) = -0.0636

----------
Target: USP8 (UniProt P40818)
Sequence (P40818 whole entry, the tested form may be a part): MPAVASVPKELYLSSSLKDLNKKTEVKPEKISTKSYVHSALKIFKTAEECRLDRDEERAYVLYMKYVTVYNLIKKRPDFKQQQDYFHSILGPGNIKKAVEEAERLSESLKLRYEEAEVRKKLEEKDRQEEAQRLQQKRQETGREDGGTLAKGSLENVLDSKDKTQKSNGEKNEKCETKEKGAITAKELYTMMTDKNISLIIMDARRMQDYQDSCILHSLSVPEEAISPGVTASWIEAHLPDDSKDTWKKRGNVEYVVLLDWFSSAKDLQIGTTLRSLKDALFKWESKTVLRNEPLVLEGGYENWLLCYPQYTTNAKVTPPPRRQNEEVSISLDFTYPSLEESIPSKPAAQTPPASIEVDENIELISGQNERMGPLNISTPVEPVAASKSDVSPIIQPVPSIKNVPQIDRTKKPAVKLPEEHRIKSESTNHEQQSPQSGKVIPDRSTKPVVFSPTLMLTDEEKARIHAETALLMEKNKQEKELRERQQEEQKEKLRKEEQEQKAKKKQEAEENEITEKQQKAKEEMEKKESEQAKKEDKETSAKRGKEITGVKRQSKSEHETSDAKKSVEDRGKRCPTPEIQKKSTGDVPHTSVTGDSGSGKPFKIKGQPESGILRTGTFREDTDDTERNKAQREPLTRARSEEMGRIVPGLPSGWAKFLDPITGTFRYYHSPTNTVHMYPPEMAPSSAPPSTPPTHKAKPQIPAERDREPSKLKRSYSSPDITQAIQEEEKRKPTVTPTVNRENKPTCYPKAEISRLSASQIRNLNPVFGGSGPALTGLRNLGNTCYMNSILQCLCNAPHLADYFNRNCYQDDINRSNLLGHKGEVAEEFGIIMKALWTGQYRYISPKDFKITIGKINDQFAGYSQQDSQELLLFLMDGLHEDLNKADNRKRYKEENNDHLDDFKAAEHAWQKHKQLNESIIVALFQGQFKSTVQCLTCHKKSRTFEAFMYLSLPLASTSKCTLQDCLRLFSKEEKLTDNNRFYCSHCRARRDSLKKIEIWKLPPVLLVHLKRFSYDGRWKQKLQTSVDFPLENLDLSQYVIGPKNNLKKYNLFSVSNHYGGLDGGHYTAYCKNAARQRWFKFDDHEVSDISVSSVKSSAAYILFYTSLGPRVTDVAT
Test: log2 ratio of Biotin-Ahx-Ub-VS probe labelling (fragment/DMSO); higher = less target engagement (more negative = stronger competition), active = hit call of the paper (q ≤ 0.05, log2 ratio ≤ -1)
Conditions: compound concentration: 200 uM; treatment time: 3 h
ASSAY ENDPOINT: log2 ratio of Biotin-Ahx-Ub-VS probe labelling

O=C(CCl)NCc1cccc(N2CCCC2=O)c1 = -0.147
O=C(CCl)NCCc1ccc(F)cc1 = -0.0379
Cc1cccc(NC(=O)CCl)c1C = -0.346
CN(Cc1nc2ccccc2[nH]1)C(=O)CCl.Cl = -0.0998
Cc1ccc(C(=O)NCCNC(=O)CCl)cc1 = -0.271
O=C(CCl)Nc1cc2c(cc1Cl)OCCCO2 = -0.029
CC(=O)C1CCCCN1C(=O)CCl (centres undefined) = 0.076
O=C(CCl)NCc1ccc2c(c1)OCO2 = -0.155
O=C(CCl)N1CCC2(CCC(O)CC2)CC1 = -0.382
Cc1noc(N2CCN(C(=O)CCl)CC2)n1.Cl = -0.307
O=C(CCl)N(C1CCCC1)C1CCS(=O)(=O)C1 (centres undefined) = 0.0542
Cl.Cn1nc2c(c1CNC(=O)CCl)CCCC2 = -0.598
CC(NC(=O)CCl)c1cccc2ccccc12 (centres undefined) = -0.651
CCCn1nccc1NC(=O)CCl = -0.318
O=C(CCl)NC1CCC(C(F)(F)F)CC1 (centres undefined) = -0.0509
Cc1nc(CNC(=O)CCl)c2ccccn12.Cl = -0.312
O=C(CCl)NC1CCS(=O)(=O)c2ccccc21 (centres undefined) = -0.538
O=C(CCl)Nc1cccc(NC(=O)c2ccccc2)c1 = 0.244
O=C(CCl)Nc1cc(Cl)ccc1-n1cncn1 = -0.73
Cl.O=C(CCl)N[C@H]1C[C@@H](n2cccn2)C1 = 0.27
CS(=O)(=O)N1CCCN(C(=O)CCl)CC1 = -0.323
Cc1nc(CC2CCN(C(=O)CCl)CC2)no1 = -0.755
NC(=O)C1CCCCN1C(=O)CCl (centres undefined) = -0.26
NC(=O)C(Cc1ccccc1)NC(=O)CCl (centres undefined) = -0.047
Cc1ccc(N2CCC(NC(=O)CCl)C2=O)cc1 (centres undefined) = 0.0227
Cl.O=C(CCl)NC1(c2ncccn2)CCC1 = -0.47
O=C(CCl)N1CCC(c2nc3ccccc3o2)CC1 = -0.0637
O=C(CCl)N1CCOC2(CCC2)CC1 = -0.275
O=C(CCl)NC1CCCCNC1=O (centres undefined) = -0.134

----------
Listed below: log2 ratio of Biotin-Ahx-Ub-VS probe labelling values for each entry.
Target: USP8 (UniProt P40818)
Assay: log2 ratio of Biotin-Ahx-Ub-VS probe labelling (fragment/DMSO); higher = less target engagement (more negative = stronger competition), active = hit call of the paper (q ≤ 0.05, log2 ratio ≤ -1)
Settings: compound concentration: 200 uM; treatment time: 3 h
ASSAY ENDPOINT: log2 ratio of Biotin-Ahx-Ub-VS probe labelling

O=C(CCl)N1CCCC1c1ccsc1 (stereo unspecified) = -0.441
O=C(CN1CCN(C(=O)CCl)CC1)Nc1cccc(F)c1 = -0.23
COCC1C=CCCN1C(=O)CCl (stereo unspecified) = -0.0182
O=C(CCl)N[C@H]1CC[C@@H](CO)CC1 = -0.969
CNC(=O)C1(NC(=O)CCl)CCCCC1 = -0.173
CC(O)CC1CCN(C(=O)CCl)CC1 (stereo unspecified) = -0.0562
O=C(CCl)Nc1ccc(F)cc1Cl = -0.165
CCN1C(=O)C2CN(C(=O)CCl)CCN2C1=O (stereo unspecified) = 0.0104
Cc1nnc(C(NC(=O)CCl)c2ccccc2)n1C (stereo unspecified) = 0.467
O=C(CCl)N(Cc1ccsc1)C1CC1 = 0.0752
COc1ccc(CN(C)C(=O)CCl)cc1 = -0.448
Cc1cc(NC(=O)CCl)n(-c2ccccc2)n1 = -0.118
O=C(CCl)NCCc1cccc2ccccc12 = -0.118
O=C(CCl)N1CCOCCC1c1ccccc1 (stereo unspecified) = -0.109
O=C(CCl)Nc1nnc(CC(F)(F)F)o1 = -0.263
O=C(CCl)N1CCN(C(=O)N2CCCCC2)CC1 = -0.843
O=C(CCl)Nc1cccc2ncccc12 = -0.176
CC(NC(=O)CCl)c1cccc(Cl)c1 (stereo unspecified) = -0.413
O=C(CCl)N1CCC(=C(F)CO)C1 = 0.0438
O=C(CCl)N1CCCC2CCCCC21 (stereo unspecified) = -0.0438
O=C(CCl)N(C1=CCCCC1)C1CC1 = -0.00831
CC(NC(=O)CCl)c1cnn(C2CC2)c1 (stereo unspecified) = -0.373
Cc1n[nH]c(=O)c2c(NC(=O)CCl)oc(C)c12 = -0.29
COc1cccc(CN(C)C(=O)CCl)c1 = 0.148
CN1C(=O)c2ccc(NC(=O)CCl)cc2C1=O = -0.236
O=C(CCl)NC1(c2ccc3c(c2)OCCO3)CCCC1 = -0.374
CS(=O)(=O)c1ccc(NC(=O)CCl)cc1 = 0.012
O=C(CCl)N1CC=C(c2c[nH]c3ccccc23)CC1 = -0.785
CC(NC(=O)CCl)c1cc2n(n1)CCCC2.Cl (stereo unspecified) = 0.0604
CN(CCc1ncc(Br)cn1)C(=O)CCl.Cl = -0.602
Cl.O=C(CN1CCN(C(=O)CCl)CC1)Nc1ccc(F)cc1 = 0.234
